Where these numbers come from: PubChem BioAssay (NCI)

Collected TGI values appear next to each entry.
Tested on: CAKI-1 renal
protocol_description: NCI tumour cell line growth inhibition, 48 h
metric_name: TGI

compound	metric_name	value
Cc1cc(C)c2ccc(N3CCNCC3)nc2n1	TGI	> 100 µM
Cn1nc(-c2ccccc2)c(C(=O)/C=C/c2ccc(F)cc2)c(N2CCCC2)c1=O	TGI	61.9 µM
Cc1ncc(-c2nnnn2-c2ccccc2)c(C(=O)O)n1	TGI	> 100 µM
COc1ccc(-c2cc(=O)oc3ccc(Cl)cc23)cc1F	TGI	> 100 µM
COC(=O)C1CC(C(=O)OC)c2nc3cc([N+](=O)[O-])ccc3nc21 (centres undefined)	TGI	> 100 µM
CCCCCCCCCCCCCCCCSC(=NCC)NCC	TGI	2.78 µM
COc1cccc(C(=O)c2sc(Nc3ccc(N4CCN(C(C)C)CC4)cc3)nc2N)c1	TGI	> 8.2 µM
O=C(O)CCn1cnc2c(=S)nc[nH]c21	TGI	> 100 µM
c1ccc(CSCCNCCN(CCNCCSCc2ccccc2)CCNCCSCc2ccccc2)cc1	TGI	14.3 µM
CCOC(NC(=O)CC)(C(F)(F)F)C(F)(F)F	TGI	> 100 µM
N#CCCN(c1ccc(/C=N/c2nc(-c3ccccc3)cs2)cc1)S(=O)(=O)c1ccccc1	TGI	> 100 µM
Cc1[nH]c2ccccc2c1-c1n[nH]c(=O)c2ccccc12	TGI	> 100 µM
CC(C)(C)OC/C=C(\Br)CO	TGI	> 100 µM
OC[C@@H]1CC#C/C=C\C#CC[C@@H]1CO	TGI	> 100 µM
COc1ccc(C(=O)/C=C/c2c(OC)cc(OC)cc2OC)c(OC)c1	TGI	> 100 µM
CC=C(CBr)CCC(Br)C(C)(C)Cl (mixture of isomers)	TGI	> 10 µM
CCCCCCCCCCCCCCCCCC(=O)NCC(COP(=O)([O-])OCC[N+](C)(C)C)OC (centres undefined)	TGI	8.14 µM
CN(C)CCCNC(=O)c1c(-c2cccnc2)cnc2ccccc12	TGI	> 100 µM
CCCCCNC(=O)c1cc2cc(CCl)ccc2oc1=O	TGI	2.57 µM
S=C(S)N1CCOCC1	TGI	> 34 µM
O=C1/C(=C/c2ccc(O)c(CN3CCCCC3)c2)CCC/C1=C\c1ccc(O)c(CN2CCCCC2)c1	TGI	34.5 µM
CCn1c2ccccc2c2nnc(NCCCO)nc21	TGI	> 100 µM
O=C(COc1ccc2c(=O)cc(-c3ccc(Cl)cc3)oc2c1)N1CCN(c2ccccc2)CC1	TGI	> 100 µM
Cc1cc(S(=O)(=O)O)ccc1N=Nc1c(O)ccc2ccccc12	TGI	> 100 µM

---

Tested on: A549 NSCLC
protocol_description: NCI tumour cell line growth inhibition, 48 h
Collected TGI values appear next to each entry.

molecule	TGI
CCC(=O)O[C@@H]([C@H](C)[C@H]1OC(CC)=C(C)C(=O)[C@@H]1C)[C@@H](C)C(=O)CC	> 100 µM
COC1C(O)CC(OC2CC(OC3CC(O[C@@H]4C(=O)c5c(cc6cc(OC7CC(OC8CC(O)C(O)C(C)O8)C(O)C(C)O7)c(C)c(O)c6c5O)CC4[C@H](OC)C(=O)C(C)=O)OC(C)C3O)OC(C)C2O)OC1C (some centres undefined)	> 33.3 µM
OCCN(CCO)CCn1cnc2c(NCc3ccccc3)ncnc21	> 100 µM
COc1cc(-c2nc3nc(N4CCN(C)CC4)ccc3[nH]2)c(OC)c2[nH]c(CO)nc12	> 100 µM
O=C(/C=C/c1ccccc1F)c1ccc([N+](=O)[O-])cc1	> 100 µM
CN1CCC(SC2Cc3cc(Cl)ccc3Sc3ccccc32)CC1 (centres undefined)	29.7 µM
N#CCCN(c1ccc(/C=N/c2nc(-c3ccccc3)cs2)cc1)S(=O)(=O)c1ccccc1	> 100 µM
C(=Nc1ccccc1C1SCCCS1)c1ccccc1	> 100 µM
CCN(CC)c1ccc(C2=NN(C(C)=O)C(c3cc(OC)c(OC)c(OC)c3)C2)cc1 (centres undefined)	22.5 µM

---

Test system: MOLT-4 leukemia
protocol_description: NCI tumour cell line growth inhibition, 48 h
Collected TGI values appear next to each entry.

molecule	TGI
O=C1c2ccccc2C(=O)c2c(Nc3ccc(CCO)cc3)ccc(O)c21	> 100 µM
CN(C)C(=S)/N=C1\SC(=Nc2ccccc2)C(=Nc2ccccc2)N1c1ccc([N+](=O)[O-])cc1	> 100 µM
COc1ccc(NC(=O)CC(=O)NN)cc1	> 100 µM
CCN(CC)c1ccc(C2=NN(C(C)=O)C(c3cc(OC)c(OC)c(OC)c3)C2)cc1 (stereo not given)	3.57 µM
O=c1ssc2c1Nc1c(ssc1=O)S2	28.4 µM
CCCCN(CCCC)CC(C(=O)Nc1ccccc1)/C(C)=N\NC(=O)c1ccncc1 (stereo not given)	> 100 µM
Cc1ccc(S(=O)(=O)NNC(=O)Nc2ccc(Cl)cc2)cc1	> 100 µM
CCCCCCSC[C@H](OC(C)=O)[C@@H](OC(C)=O)[C@@H](OC(C)=O)[C@@H](COC(C)=O)OC(C)=O	90.5 µM
COc1cc(-c2nc3nc(N4CCN(C)CC4)ccc3[nH]2)c(OC)c2[nH]c(CO)nc12	> 100 µM
CN(C)CCCNC(=O)c1c(-c2cccnc2)cnc2ccccc12	> 100 µM
CC(C)Oc1c(N(Cc2ccccc2)c2ccccc2C2SCCCS2)c(=O)c1=O	> 100 µM
O=C(OCc1ccccc1)N1N=NC2C1C1CC(OCc3ccccc3)(OCc3ccccc3)C2O1 (stereo not given)	> 100 µM
Cc1ccc(C(=Nc2ccccc2)N=P(c2ccccc2)(c2ccccc2)c2ccccc2)cc1	1.29 µM
O=C1/C(=N\n2c(-c3ccncc3)n[nH]c2=S)c2cc(Cl)ccc2N1CN1CCCCC1	50.3 µM
NC(=Nc1ccc(S(=O)(=O)Nc2cnc3ccccc3n2)cc1)/N=C(/N)Nc1ccc(Br)cc1	> 100 µM
CCOC(=O)C1=C(C)N=C2SC=C(c3ccccc3)N2[C@H]1c1cn[nH]c1-c1ccc(Cl)cc1	7.41 µM
CN(C)c1ccc(/C=C(\C#N)c2nc(-c3cc4ccccc4oc3=O)cs2)cc1	> 50 µM
CN(C)c1ccc(C(C#N)NNC(=O)Cc2ccccc2)cc1 (stereo not given)	> 100 µM
S=c1sc2c(s1)SCc1cccc(n1)CSc1sc(=S)sc1SCc1cccc(n1)CS2	> 100 µM
Cc1[nH]c2ccccc2c1-c1n[nH]c(=O)c2ccccc12	81.3 µM

---

Collected TGI values appear next to each entry.
System: SK-MEL-2 melanoma
protocol_description: NCI tumour cell line growth inhibition, 48 h
metric_name: TGI

compound	metric_name	value
COc1ccc(C(=O)c2c(C(C(=O)c3ccc(OC)cc3)C(=O)c3ccc(OC)cc3)n(C(=O)c3ccc(OC)cc3)c3ccccc23)cc1	TGI	> 100 µM
Cc1cc(S(=O)(=O)Nc2n[nH]c(-c3ccc(Cl)cn3)n2)c(S)cc1Cl	TGI	> 100 µM
c1ccc(CSCCNCCN(CCNCCSCc2ccccc2)CCNCCSCc2ccccc2)cc1	TGI	3.11 µM
CCOC(=O)/C(=N/Nc1ccc(C)cc1)N1C(=S)C=C(C)NN(C)C1=S	TGI	> 100 µM
COc1ccc2c(c1)OCC1Cc3cc4c(cc3OC21)OCO4 (stereo not given)	TGI	86.9 µM
CCc1ccccc1NC(=O)C1=C(C)NC(C)=C(C(=O)Nc2ccccc2CC)C1c1cccc([N+](=O)[O-])c1	TGI	> 100 µM
CCOC(=O)c1ccc2c(c1)nc(-c1ccc(Cl)cc1)n2-c1cc(C(C)(C)C)[nH]n1	TGI	4.4 µM
O=C(OCc1ccccc1)N1N=NC2C1C1CC(OCc3ccccc3)(OCc3ccccc3)C2O1 (stereo not given)	TGI	> 100 µM
Cc1ccc(S(=O)(=O)NNC(=O)Nc2ccc(Cl)cc2)cc1	TGI	> 100 µM
CCOC(=O)/C(ON)=C(/CC/C(C(=O)OC)=C(\ON)C(=O)OCC)C(=O)OC	TGI	> 100 µM
O=C(O)CCn1cnc2c(=S)nc[nH]c21	TGI	> 100 µM
C=C(C)c1ccccc1 (tested in a mixture with another compound)	TGI	> 100 µM
CC(C)Cc1ccc(C(C)C(=O)NCc2ccc(Cn3c(=O)sn(CCCCl)c3=O)cc2)cc1 (stereo not given)	TGI	3 µM
CN(C)C(=S)/N=C1\SC(=Nc2ccccc2)C(=Nc2ccccc2)N1c1ccc([N+](=O)[O-])cc1	TGI	> 100 µM
COc1ccc(-c2cc(=O)oc3ccc(Cl)cc23)cc1F	TGI	2.68 µM
COc1ccc(-c2nn(C(=O)NCCN(C)C)cc2-c2ccncc2)cc1Cl	TGI	9.48 µM
COP(=O)(CC(=O)C1OC(C)(C)OC1C(O)COCc1ccccc1)OC (stereo not given)	TGI	> 100 µM
N#CCC(=O)N/N=C(\CCN1CCCC1)CC(c1ccccc1)c1c(O)c2ccccc2oc1=O (stereo not given)	TGI	> 100 µM
O=C1/C(=N\O)C2CCC1C2 (stereo not given)	TGI	> 100 µM
Cn1c(-c2ccccc2)c2cc3nc4ccccc4nc3cc2c1-c1ccccc1	TGI	60.3 µM
